Reference source for all entries: ChEMBL document CHEMBL5303304

system: U2OS; test: Incucyte cell viability with U2OS; type: toxicity, cell-based; conditions: human, 12 h, 10 µM, compound concentration 10 uM, replicate number 1; note: unitless GR value; below 1 slowed growth and below 0 cell loss
In plain terms, low Growth Rate, meaning strictly below 0.9, gives True, and everything else gives False.

substance_smiles=Fc1cccc(-n2cnc3c(NCc4nc5ccc(F)c(F)c5[nH]4)nc(N4CCOCC4)nc32)c1 assigned_category=True
substance_smiles=Cc1cn(CCN2CCN(c3ccccc3-c3cc(C#N)cc(C(=O)NCCCN4CCCC4)c3)CC2)c2ccccc12 assigned_category=True
substance_smiles=CC(C)(C)c1ccc(-c2coc3ccc(-c4cn[nH]c4)nc23)cc1 assigned_category=False
substance_smiles=Cl.Cl.Nc1nccc(-c2c(-c3ccc(F)cc3)ncn2C2CCCCC2)n1 assigned_category=True

---

tested on: HEK-293T; test: Incucyte cell viability with HEK293T; type: toxicity, cell-based; details: human, 6 h, 10 µM, compound concentration 10 uM, replicate number 2; note: unitless GR value; below 1 slowed growth and below 0 cell loss
Reported Growth Rate values are given for each entry in this list.
measurement_kind: Growth Rate

compound="CN(C)CCCN1c2ccccc2Sc2ccc(Cl)cc21.Cl [CHLORPROMAZINE HYDROCHLORIDE]" reported_value=0.48
compound=CC(C)(C)NC(=O)c1cncn1C1CCN(c2ccc(-c3nnc(C(F)(F)F)o3)cn2)CC1 reported_value=-0.15
compound=c1ccc2c(-c3coc4cc(-c5ccc(N6CCNCC6)cc5)cnc34)ccnc2c1 reported_value=-0.5
compound=CC(=O)NCC(=O)N1[C@@H]2CC[C@H]1c1ccc(Nc3ncc(C(F)(F)F)c(NC4CCC4)n3)cc12 reported_value=-0.94
compound=COc1cc(-c2cc(-c3cccc(O)c3)cnc2N)cc(OC)c1OC reported_value=0.38
compound=CCN1CCN(Cc2ccc(NC(=O)Nc3ccc(Oc4cc(NC)ncn4)cc3)cc2C(F)(F)F)CC1 reported_value=-0.54
compound=O=C(NCCN1CCOCC1)c1ccc2nn(CCOc3ccc(Cl)cc3)cc2c1 reported_value=0.26
compound=CC(C)(C)c1cc(NC(=O)c2csc(Nc3ccc(Cl)cc3)n2)no1 reported_value=0.84
compound=Cn1c(SCc2ccc(C(C)(C)C)cc2)nc(N)cc1=O reported_value=-0.24
compound="CCOC(=O)C1=C(C)NC(C)=C(C(=O)OC)C1c1cccc([N+](=O)[O-])c1 (stereo unspecified)" reported_value=-0.36
compound=Cc1cc(SCc2sc(-c3ccc(C(F)(F)F)cc3)nc2C)ccc1OCC(=O)O reported_value=0.71
compound="CC(C)S(=O)(=O)c1ccccc1Nc1nc(N[C@@H]2CCCN(CCCCCCCNC(=O)COc3cccc4c3C(=O)N(C3CCC(=O)N(C)C3=O)C4=O)C2)ncc1Cl (stereo partly specified)" reported_value=-0.7
compound="Cc1nccn1CC1CCc2c(c3ccccc3n2C)C1=O.Cl (stereo unspecified)" reported_value=0.6
compound=COc1cc2nc(-c3cc(F)ccc3O)nc(N[C@@H]3CNC[C@H]3C(C)(C)O)c2cc1OC.Cl.Cl reported_value=-0.53
compound=c1cc(-c2cnn3cc(-c4ccc(N5CCNCC5)cc4)cnc23)c2cccnc2c1 reported_value=-0.96
compound="C/C=C1\\C(=O)CC2C3CCC4=CC(=O)CC[C@]4(C)C3CC[C@]12C (stereo partly specified)" reported_value=0.44
compound=Cc1cn([C@H](C)CC#N)c(=O)c2cc(Cn3nc(C(F)F)cc3Cl)nn12 reported_value=0.66
compound="Cc1cc(C2CCCNC2)ccc1Nc1ncc(Br)c(NCc2cccc3c2C(C)(C)C(=O)N3)n1 (stereo unspecified)" reported_value=0.05
compound=Cn1cc(-c2ccc(-c3cncc(Cl)c3N3CCC4(CCNC4=O)CC3)cc2)cn1 reported_value=0.24
compound="CC(C)CNc1nc(N2CCN(CC3CCCOC3)CC2)ncc1C(=O)NCc1ccccc1 (stereo unspecified)" reported_value=0.95
compound="OCC1OC(n2cnc3cc(Cl)c(Cl)cc32)C(O)C1O (stereo unspecified)" reported_value=0.29
compound=O=c1cc(-c2ccccc2)oc2c1ccc1ccccc12 reported_value=0.53
compound=COc1cc(Cl)c(C(=O)N[C@@H](CN[C@H]2CC[C@@H](N)CC2)Cc2ccc(C#N)cc2)cc1-c1ccc(CN[C@H](C)c2ccc(C)cc2)o1 reported_value=-0.61
compound=O=c1cccc2n1C[C@@H]1CNC[C@H]2C1 reported_value=0.9
compound=COc1ccccc1-n1nc(C2CC(C)(C)OC(C)(C)C2)cc1-c1ccc(Cl)cc1 reported_value=-0.13
compound=CC1CCN(C(=O)[C@@H](CCn2cccc2C#N)NS(=O)(=O)c2cccc3[nH]ccc23)CC1 reported_value=0.99
compound=Cn1c(=O)n(CCCO)c(=O)c2c1nc(Oc1cccc(OC(F)(F)F)c1)n2Cc1ccc(Cl)cc1 reported_value=0.64
compound=Cc1c(N2CCNCC2)nc2ccc(Br)cc2c1C(=O)NC[C@H](CCC(=O)O)c1ccccc1Cl reported_value=0.8
compound=Cl.Cl.O=[N+]([O-])c1ccc(CN2CCOCCOCCN(Cc3ccc([N+](=O)[O-])cc3)CCOCC2)cc1 reported_value=-0.29
compound=CN1CCN(c2ccc(C(=O)Nc3n[nH]c4ccc(Cc5cc(F)cc(F)c5)cc34)c(NC3CCOCC3)c2)CC1 reported_value=-0.99
compound=Cc1cc2ncnn2cc1Nc1ncc2c(n1)n(C1CCOCC1)c(=O)n2C reported_value=0.98
compound="CCCCCN1C(=O)C2(COc3cc4c(cc32)OCO4)c2ccccc21 (stereo unspecified)" reported_value=0.92
compound=COc1cc(C(=O)NC2CCN(C)CC2)ccc1Nc1ncc2c(n1)N(C1CCCC1)CC(F)(F)C(=O)N2C reported_value=-0.29
compound="Cl.NCC(O)c1ccc(O)cc1 (stereo unspecified) [OCTOPAMINE HYDROCHLORIDE]" reported_value=0.94
compound=CCn1c(CNC(=O)c2nc(Cl)cnc2N)[n+](CC)c2ccc(C(=O)N(C)CCN(C)C)cc21.[Cl-] reported_value=0.55
compound=COc1cc(-c2nn([C@H]3CC[C@H](N4CCN(C(C)=O)CC4)CC3)c3ncnc(N)c23)ccc1NC(=O)c1cc2ccccc2n1C reported_value=-0.96

---

tested on: HEK-293T; assay: Incucyte cell viability with HEK293T; format: toxicity, cell-based; conditions: human, 12 h, 10 µM, compound concentration 10 uM, replicate number 2; note: unitless GR value; below 1 slowed growth and below 0 cell loss
Param threshold (0.3) applies to Growth Rate; output fulfilled when value >= threshold, not fulfilled when value < threshold.

compound="CC/C(=C(\\c1ccc(O)cc1)c1ccc(OCCN(C)C)cc1)c1ccccc1 [AFIMOXIFENE]" target_entity=HEK-293T assigned_category="not fulfilled"
compound="CC(C)(C[C@H]1CN(S(=O)(=O)c2cccc(C(F)(F)F)c2)c2cc(-c3cc(F)cc(OC(F)F)c3)ccc2O1)C(=O)O [CINTIRORGON]" target_entity=HEK-293T assigned_category=fulfilled
compound="CC[N+](CC)(CC)CCOc1ccc(/C=C/c2ccccc2)cc1.[I-] [STILONIUM IODIDE]" target_entity=HEK-293T assigned_category="not fulfilled"
compound=CCC(C)(C)CC[C@H](NC(=O)N1CCOCC1)C(=O)NC1(C#N)CCN(C)CC1 target_entity=HEK-293T assigned_category=fulfilled
compound=Cc1cn(CCN2CCN(c3ccccc3-c3cc(C#N)cc(C(=O)NCCCN4CCCC4)c3)CC2)c2ccccc12 target_entity=HEK-293T assigned_category="not fulfilled"
compound="CC(C)(C#Cc1ccc(NC(=O)COc2ccccc2C(=O)c2ccccc2)c(Cl)c1)C(=O)O [BI 2439]" target_entity=HEK-293T assigned_category=fulfilled
compound="Cc1c(N2CCNCC2)nc2ccc(Br)cc2c1C(=O)NC[C@H](CCC(=O)O)c1ccccc1Cl [BAY-403]" target_entity=HEK-293T assigned_category=fulfilled
compound=Cn1cc(-c2ccc3occ(-c4cccc(-c5ccncc5)c4)c3n2)cn1 target_entity=HEK-293T assigned_category="not fulfilled"
compound=CC(C)(O)c1ccc2c(c1)ncn2-c1cccc(-c2ccccc2C#N)c1 target_entity=HEK-293T assigned_category="not fulfilled"
compound="O=C(O)/C=C/c1ccc(Cn2ccnc2)cc1 [OZAGREL]" target_entity=HEK-293T assigned_category=fulfilled
compound="Cc1c(NC(=O)COc2ccc(Cl)cc2C(=O)c2cc(F)cc(C(F)(F)F)c2)ccc(C(=O)O)c1F [BI 2540]" target_entity=HEK-293T assigned_category=fulfilled
compound=c1ccc2c(-c3coc4cc(-c5ccc(N6CCNCC6)cc5)cnc34)ccnc2c1 target_entity=HEK-293T assigned_category="not fulfilled"
compound="CCC(=O)O[C@@H](OP(=O)(CCCCc1ccccc1)CC(=O)N1C[C@H](C2CCCCC2)C[C@H]1C(=O)[O-])C(C)C.[Na+] (stereo not given in full)" target_entity=HEK-293T assigned_category="not fulfilled"
compound=Cc1cn([C@@H](C)CC#N)c(=O)c2cc(Cn3nc(C(F)F)cc3Cl)nn12 target_entity=HEK-293T assigned_category=fulfilled
compound=CN(C)CC#Cc1ccc2[nH]c3c(c2c1)-c1nc(N)ncc1CCC3 target_entity=HEK-293T assigned_category="not fulfilled"
compound=COC(=O)c1ccc2c(c1)NC(=O)/C2=C(\Nc1ccc(-c2nccn2C)cc1)c1ccccc1 target_entity=HEK-293T assigned_category="not fulfilled"
compound="Nc1ncnc2c1c(I)cn2[C@@H]1O[C@H](CO)[C@@H](O)[C@H]1O [IODOTUBERCIDIN]" target_entity=HEK-293T assigned_category="not fulfilled"
compound=Cl.Cl.NC1(c2ccc(-c3nc4ccn5c(=O)[nH]nc5c4cc3-c3ccccc3)cc2)CCC1 target_entity=HEK-293T assigned_category="not fulfilled"
compound=CCCCc1c(-c2ccccc2)nc(N)nc1-c1ccc(OCc2ccccc2)c(F)c1F target_entity=HEK-293T assigned_category=fulfilled
compound=Cc1cc(S(=O)(=O)N2CC(C)(C)c3cc(-c4ccc(C(F)(F)F)cc4)ccc32)ccc1OCC(=O)O target_entity=HEK-293T assigned_category=fulfilled
compound=COc1c(NC(=O)c2cc3cccc(Oc4ccnc(C(=O)N5CCN(C)CC5)c4)c3n2C)cc(C(C)(C)C)cc1NS(C)(=O)=O target_entity=HEK-293T assigned_category=fulfilled
compound=COc1cc(C(=O)N2CC[C@@H](O)[C@@H](N)C2)cc2nc(-c3cc4ccccc4n3CC3CC3)n(C)c12.Cl target_entity=HEK-293T assigned_category=fulfilled
compound=CC(C)(C)c1cc(NC(=O)c2csc(Nc3ccccn3)n2)no1 target_entity=HEK-293T assigned_category="not fulfilled"
compound="CCOCCn1cc(C(=O)Nc2ccc(-n3nc(-c4cccnc4)cc3C(F)(F)F)cn2)ccc1=O [BI 1935]" target_entity=HEK-293T assigned_category="not fulfilled"
compound=Cc1ccc2c(NS(=O)(=O)c3ccccc3Cl)cccc2c1Oc1ncccc1-c1ccnc(N[C@H]2CCCNC2)n1.Cl target_entity=HEK-293T assigned_category=fulfilled
compound=FC(F)(F)c1ccccc1-c1cc(C(F)(F)F)c2[nH]c(C3=NOC4(CCCCC4)C3)nc2c1 target_entity=HEK-293T assigned_category="not fulfilled"
compound=COc1cc(Cl)c(C(=O)N[C@@H](CN[C@H]2CC[C@@H](N)CC2)Cc2ccc(C#N)cc2)cc1-c1ccc(CN[C@H](C)c2ccc(C)cc2)o1 target_entity=HEK-293T assigned_category="not fulfilled"
compound=CCOP(=O)(OCC)C(=Cc1cc(C(C)(C)C)c(O)c(C(C)(C)C)c1)P(=O)(OCC)OCC target_entity=HEK-293T assigned_category=fulfilled
compound=O=C1CCCc2[nH]c(-c3ccnc(NCC4CC4)c3)c(Nc3ccccc3)c21 target_entity=HEK-293T assigned_category=fulfilled
compound=COc1cc(-c2cc3ncccc3c(OC[C@H]3CNC(=O)C3)n2)cc(OC)c1OC1CCOCC1.O=C(O)C(F)(F)F target_entity=HEK-293T assigned_category="not fulfilled"
compound=NS(=O)(=O)c1ccc(Nc2nc(OCC3CCCCC3)c3nc[nH]c3n2)cc1 target_entity=HEK-293T assigned_category=fulfilled
compound="CC(C)N1CCN(Cc2cnc(-c3cc(-c4cccc5[nH]ccc45)cc4[nH]ncc34)o2)CC1 [NEMIRALISIB]" target_entity=HEK-293T assigned_category="not fulfilled"
compound=C=CC(=O)Nc1ccc(C(=O)Nc2n[nH]c3c2CN(C(=O)N[C@H](CN(C)C)c2ccccc2)C3(C)C)cc1 target_entity=HEK-293T assigned_category="not fulfilled"
compound=COc1c(C(=O)/C=C/c2ccccc2)c(O)c(OC)c2occc12 target_entity=HEK-293T assigned_category="not fulfilled"
compound="N#CN1CC[C@@H](C(=O)Nc2nc3c(s2)CN(C(=O)CN=[N+]=[N-])CC3)C1 [JYQ88]" target_entity=HEK-293T assigned_category=fulfilled
